// data source = PubChem BioAssay (Tox21)

# Assay protocol: A CellTox Green Cytotoxicity Assay to monitor cytotoxicity in HEK293 cells - 32 hour (AID 1224881); note: nearly all actives have a fitted effect of over 40% in size; note: potency is the fitted concentration of half-maximal effect
# Experimental setup: CellTox Green fluorescence; series mostly up to 76.8 µM
Records with an inconclusive call do not appear. Activity calls are given as the source filed them. Calls come from the whole dose curve; as a rule, active = well fitted activation curve with a large enough effect in the repeat runs; inconclusive = weak or mixed curves; inactive = flat fitted curve, though single readings scatter.
Reported endpoint: Potency

For orientation, consider the following solved cases.
>>> result("CSc1ccc(C(=O)c2[nH]c(=O)[nH]c2C)cc1")
"inactive"
>>> result("On1ccccc1=S")
"1.22 µM (active)"
>>> result("CCCCN(CCCC)C(=O)N(CCCC)CCCC")
"inactive"
>>> result("O=C1C=CC(=O)N1")
"17.8 µM (active)"
>>> result("S=c1[nH]c2ccccc2s1")
"49 µM (active)"

Hey, quick one: what's Potency for each of these?
1. CC(C)(C)c1ccc(C(=O)O)cc1
2. Cc1cc(N)c(S(=O)(=O)O)cc1Cl
3. CC(C)=CCOc1ccc(/C=C/C(=O)c2ccc(OCC=C(C)C)cc2OCC(=O)O)cc1

[A]
["inactive", "inactive", "inactive"]
